FYI, the data here is from paper PMC6516726.

Molecular target: L25I PETNR (Enterobacter cloacae, UniProt P71278, L26I)
Sequence (P71278 entry or part of it L26I): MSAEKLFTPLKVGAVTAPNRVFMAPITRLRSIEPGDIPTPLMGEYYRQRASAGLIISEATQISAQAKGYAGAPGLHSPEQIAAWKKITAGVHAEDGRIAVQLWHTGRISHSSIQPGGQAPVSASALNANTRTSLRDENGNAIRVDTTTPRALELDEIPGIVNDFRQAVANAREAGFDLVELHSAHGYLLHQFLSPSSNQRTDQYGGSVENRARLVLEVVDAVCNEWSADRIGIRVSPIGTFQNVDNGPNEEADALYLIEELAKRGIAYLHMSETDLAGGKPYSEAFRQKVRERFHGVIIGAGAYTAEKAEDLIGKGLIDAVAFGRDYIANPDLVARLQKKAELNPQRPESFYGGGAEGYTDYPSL
Conditions: 5 °C; 10 mM NADPH or 25 mM NADH; pH 7.0
# kobs1 listing for each entry below
Numbers only here, please. The scale is s⁻¹.

INSERT INTO results (molecule, system_under_test, result) VALUES
  ('NC(=O)C1=CN([C@@H]2O[C@H](COP(=O)(O)OP(=O)(O)OC[C@H]3O[C@@H](n4cnc5c(N)ncnc54)[C@H](OP(=O)(O)O)[C@@H]3O)[C@@H](O)[C@H]2O)C=CC1', 'L25I PETNR (Enterobacter cloacae, UniProt P71278, L26I)', 10.12),
  ('[2H][C@@H]1C=CN([C@@H]2O[C@H](COP(=O)(O)OP(=O)(O)OC[C@H]3O[C@@H](n4cnc5c(N)ncnc54)[C@H](OP(=O)(O)O)[C@@H]3O)[C@@H](O)[C@H]2O)C=C1C(N)=O [(R)-[4-^2H]-NADPH]', 'L25I PETNR (Enterobacter cloacae, UniProt P71278, L26I)', 1.26),
  ('NC(=O)C1=CN([C@@H]2O[C@H](COP(=O)(O)OP(=O)(O)OC[C@H]3O[C@@H](n4cnc5c(N)ncnc54)[C@H](O)[C@@H]3O)[C@@H](O)[C@H]2O)C=CC1', 'L25I PETNR (Enterobacter cloacae, UniProt P71278, L26I)', 0.49);

In the following, a different molecule is considered.
Q: Dear colleague, please send me the reported kobs1 for [2H][C@@H]1C=CN([C@@H]2O[C@H](COP(=O)(O)OP(=O)(O)OC[C@H]3O[C@@H](n4cnc5c(N)ncnc54)[C@H](O)[C@@H]3O)[C@@H](O)[C@H]2O)C=C1C(N)=O [(R)-[4-^2H]-NADH] when you can.
A: 0.062

---

Entries and their kobs2 values follow.
Target: L25A PETNR (Enterobacter cloacae, UniProt P71278, L26A)
Sequence (P71278 entry or part of it L26A): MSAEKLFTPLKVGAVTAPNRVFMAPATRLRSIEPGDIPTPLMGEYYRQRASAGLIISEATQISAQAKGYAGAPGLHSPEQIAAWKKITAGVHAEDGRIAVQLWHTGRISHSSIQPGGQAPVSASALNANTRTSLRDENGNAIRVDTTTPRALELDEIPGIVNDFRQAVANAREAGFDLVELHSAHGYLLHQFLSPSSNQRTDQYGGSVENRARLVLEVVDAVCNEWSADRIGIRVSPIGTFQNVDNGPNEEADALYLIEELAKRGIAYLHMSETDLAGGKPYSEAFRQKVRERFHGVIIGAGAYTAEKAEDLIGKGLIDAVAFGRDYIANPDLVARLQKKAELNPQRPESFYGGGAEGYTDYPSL
Conditions: 40 °C; 10 mM NADPH or 25 mM NADH; pH 7.0
Value expressed in s⁻¹; do not type the unit.

INSERT INTO results (molecule, quantity_kind, result) VALUES
  ('NC(=O)C1=CN([C@@H]2O[C@H](COP(=O)(O)OP(=O)(O)OC[C@H]3O[C@@H](n4cnc5c(N)ncnc54)[C@H](O)[C@@H]3O)[C@@H](O)[C@H]2O)C=CC1', 'kobs2', 0.13),
  ('[2H][C@@H]1C=CN([C@@H]2O[C@H](COP(=O)(O)OP(=O)(O)OC[C@H]3O[C@@H](n4cnc5c(N)ncnc54)[C@H](O)[C@@H]3O)[C@@H](O)[C@H]2O)C=C1C(N)=O [(R)-[4-^2H]-NADH]', 'kobs2', 0.17),
  ('NC(=O)C1=CN([C@@H]2O[C@H](COP(=O)(O)OP(=O)(O)OC[C@H]3O[C@@H](n4cnc5c(N)ncnc54)[C@H](OP(=O)(O)O)[C@@H]3O)[C@@H](O)[C@H]2O)C=CC1', 'kobs2', 0.26);

Okay, next one:
Q: Answer with the recorded kobs2 of [2H][C@@H]1C=CN([C@@H]2O[C@H](COP(=O)(O)OP(=O)(O)OC[C@H]3O[C@@H](n4cnc5c(N)ncnc54)[C@H](OP(=O)(O)O)[C@@H]3O)[C@@H](O)[C@H]2O)C=C1C(N)=O [(R)-[4-^2H]-NADPH] only.
A: 0.26
